meta.source: ChEMBL document CHEMBL4513216

Test system: Plasmodium falciparum
Assay: Screen against P. falciparum Asexual Blood Stage (ABS), at 5uM
Assay type: functional, Dd2
Conditions: tested at 5 uM
Among all 65,000 compounds or so, about 2,100 (3.2%) showed an effect of 50% or more. The median lay at about -52%. What follows is part of a selection rich in strong results, with near analogues and random picks from the rest.
Decision: INHIBITION >= 10% yields true (1), all other cases yield false (0).

Is reported INHIBITION greater than or equal to 10% here: `CN(C)CCCn1ccc(-c2cccc(-c3cncnc3)c2)n1`
true (1)

Threshold query (INHIBITION >= 10%) on `COCCN1C[C@@H]2[C@@H](OC)CCN(Cc3ccco3)[C@@H]2C1`
false (0)

Textbook exercise: given the entry Cc1ccc(CN2CCC3(CC2)NC(=O)CC3c2ccccc2)s1 (centres undefined) , state whether its INHIBITION is greater than or equal to 10%.
true (1)

Determine whether measured INHIBITION meets or exceeds 10% for CN(C)CC1(O)CCN(S(=O)(=O)c2ccc(F)c(F)c2)C1 (centres undefined)
true (1)

Answer whether INHIBITION of `c1cc(-c2cnccn2)cc(-c2ccn(CCN3CCCCC3)n2)c1` is greater than or equal to 10%.
true (1)

Determine whether this compound has INHIBITION no lower than 10%: `COCCN1C[C@H]2[C@@H](C1)N(Cc1cnn(C)c1)CC[C@H]2OC`
false (0)

Hello, I need to know if `COCC(=O)N1C[C@H]2CNC[C@@]2(C(=O)NCc2cc(C)n[nH]2)C1` has measured INHIBITION not below 10%. Thanks!
false (0)

State whether the measured INHIBITION reaches 10%, counting equality as reaching it, for `Cc1cccc2cc(CO)c(N3Cc4cnc(C(C)(C)C)nc4C3)nc12`
true (1)

Please tell me: is the compound `CCCc1cncnc1N1CCC(NCc2ccc(O)cc2)CC1` at or over 10% in terms of INHIBITION?
true (1)
